# testParameters: 308.15 K; 100 kPa
Let's look at some compounds and their measured viscosity.

- smilesInput: "OC1CCCCCCC1"
  viscosity [mPa·s]: 72
- smilesInput: "CCn1cc[n+](C)c1.N#C[S-]"
  viscosity [mPa·s]: 16.97
- smilesInput: "CCCCCCCCn1cc[n+](C)c1.O=S(=O)([N-]S(=O)(=O)C(F)(F)F)C(F)(F)F"
  viscosity [mPa·s]: 56.43
- smilesInput: "CC1CCCCC1"
  viscosity [mPa·s]: 0.61

* * *

# testParameters: 323.15 K; 101 kPa
Let's look at some compounds and their measured log10(viscosity).
metricName: log10(viscosity) (log10 of the value in mPa·s)

- smilesInput: "CCCCCl"
  log10(viscosity): -0.47
- smilesInput: "CC(=O)[O-].CCCC[NH2+]CCO"
  log10(viscosity): 2.19
- smilesInput: "CCOC(=O)c1ccccc1"
  log10(viscosity): 0.10
- smilesInput: "CCn1cc[n+](C)c1.N#C[S-]"
  log10(viscosity): 1.05
- smilesInput: "CCS(=O)CC"
  log10(viscosity): 0.12

* * *

# testName: xn = mol fraction of the nth substance listed
# testParameters: 303.15 K; 101 kPa; x1 = 0.2
± gives the uncertainty stated by the source.
Let's look at some compounds and their measured viscosity.

- compound: "CC(C)O + O"
  viscosity: "2.504 ± 0.017 mPa·s"
- compound: "CCOC(=O)[C@@H](O)[C@H](O)C(=O)OCC + CCCCCCO"
  viscosity: "5.484 ± 0.043 mPa·s"
- compound: "CCOC(C)(C)C + COCCO"
  viscosity: "1.089 ± 0.014 mPa·s"
